Test system: E. cloacae SS 07
Type: cell-based
measurement-context: Brain Heart Infusion, estolate and RV11-RV15 previously hydrolized, unit assumed
Item-by-item account of MIC

compound: CC[C@H]1OC(=O)[C@H](C)[C@@H](O[C@H]2C[C@@](C)(OC)[C@@H](O)[C@H](C)O2)[C@H](C)[C@@H](O[C@@H]2O[C@H](C)C[C@H](N(C)C)[C@H]2O)[C@](C)(O)C[C@@H](C)C(=O)[C@H](C)[C@@H](O)[C@]1(C)O [RV04, erythromycin-S-carboxymethylcysteinate]
MIC: > 200 µg/mL
--
compound: CCC(=O)O[C@H]1[C@H](O[C@@H]2[C@@H](C)[C@H](O[C@H]3C[C@@](C)(OC)[C@@H](O)[C@H](C)O3)[C@@H](C)C(=O)O[C@H](CC)[C@@](C)(O)[C@H](O)[C@@H](C)C(=O)[C@H](C)C[C@@]2(C)O)O[C@H](C)C[C@@H]1N(C)C [RV13]
MIC: > 200 µg/mL

----------
protocol-text: Hematic levels in the rat (absorption by oral route)
measurement-context: rat, blood, po, 100 mg/kg, Hematic levels in the rat, 3 hours, 100 mg/kg as erythromycin, average

molecule: CC[C@H]1OC(=O)[C@H](C)[C@@H](O[C@H]2C[C@@](C)(OC)[C@@H](O)[C@H](C)O2)[C@H](C)[C@@H](O[C@@H]2O[C@H](C)C[C@H](N(C)C)[C@H]2O)[C@](C)(O)C[C@@H](C)C(=O)[C@H](C)[C@@H](O)[C@]1(C)O [erythromycin]
concentration at 3 h: 1050 ng/mL

molecule: CC[C@H]1OC(=O)[C@H](C)[C@@H](O[C@H]2C[C@@](C)(OC)[C@@H](O)[C@H](C)O2)[C@H](C)[C@@H](O[C@@H]2O[C@H](C)C[C@H](N(C)C)[C@H]2O)[C@](C)(O)C[C@@H](C)C(=O)[C@H](C)[C@@H](O)[C@]1(C)O [RV01, erythromycin alpha-mercaptosuccinate]
concentration at 3 h: 770 ng/mL

----------
Tested on: B. cereus ATCC 11778
Type: cell-based
measurement-context: Brain Heart Infusion, estolate and RV11-RV15 previously hydrolized, unit assumed
Item-by-item account of MIC
observation-type: MIC (µg/mL)

compound: CCC(=O)O[C@H]1[C@H](O[C@@H]2[C@@H](C)[C@H](O[C@H]3C[C@@](C)(OC)[C@@H](O)[C@H](C)O3)[C@@H](C)C(=O)O[C@H](CC)[C@@](C)(O)[C@H](O)[C@@H](C)C(=O)[C@H](C)C[C@@]2(C)O)O[C@H](C)C[C@@H]1N(C)C [RV13]
endpoint-value: 0.8

compound: CC[C@H]1OC(=O)[C@H](C)[C@@H](O[C@H]2C[C@@](C)(OC)[C@@H](O)[C@H](C)O2)[C@H](C)[C@@H](O[C@@H]2O[C@H](C)C[C@H](N(C)C)[C@H]2O)[C@](C)(O)C[C@@H](C)C(=O)[C@H](C)[C@@H](O)[C@]1(C)O [erythromycin]
endpoint-value: 0.4

compound: CC[C@H]1OC(=O)[C@H](C)[C@@H](O[C@H]2C[C@@](C)(OC)[C@@H](O)[C@H](C)O2)[C@H](C)[C@@H](O[C@@H]2O[C@H](C)C[C@H](N(C)C)[C@H]2O)[C@](C)(O)C[C@@H](C)C(=O)[C@H](C)[C@@H](O)[C@]1(C)O [RV05, erythromycin-N-acetylcysteinate]
endpoint-value: 0.4

compound: CCC(=O)O[C@H]1[C@H](O[C@@H]2[C@@H](C)[C@H](O[C@H]3C[C@@](C)(OC)[C@@H](O)[C@H](C)O3)[C@@H](C)C(=O)O[C@H](CC)[C@@](C)(O)[C@H](O)[C@@H](C)C(=O)[C@H](C)C[C@@]2(C)O)O[C@H](C)C[C@@H]1N(C)C [RV11]
endpoint-value: 0.8

----------
protocol-text: Hematic levels in the healthy volunteer
Format: in vivo, healthy volunteers
measurement-context: human, blood, po, 500 mg, 4 hours, 500 mg of erythromycin, average
From the text: For the dosing, the microbiological method using a B. subtilis strain was adopted.
observation-type: concentration at 4 h (ng/mL)

compound: CCC(=O)O[C@H]1[C@H](O[C@@H]2[C@@H](C)[C@H](O[C@H]3C[C@@](C)(OC)[C@@H](O)[C@H](C)O3)[C@@H](C)C(=O)O[C@H](CC)[C@@](C)(O)[C@H](O)[C@@H](C)C(=O)[C@H](C)C[C@@]2(C)O)O[C@H](C)C[C@@H]1N(C)C [erythromycin estolate, reference compound]
measurement-units: ng/mL
endpoint-value: 1310

----------
protocol-text: Hematic levels in the rat (absorption by oral route)
measurement-context: rat, blood, po, 100 mg/kg, Hematic levels in the rat, 1 hour, 100 mg/kg as erythromycin, average

compound: CC[C@H]1OC(=O)[C@H](C)[C@@H](O[C@H]2C[C@@](C)(OC)[C@@H](O)[C@H](C)O2)[C@H](C)[C@@H](O[C@@H]2O[C@H](C)C[C@H](N(C)C)[C@H]2O)[C@](C)(O)C[C@@H](C)C(=O)[C@H](C)[C@@H](O)[C@]1(C)O [erythromycin]
concentration at 1 h: 1030 ng/mL

----------
protocol-text: in vivo
measurement-context: rat, po, 100 mg/kg, Hematic levels in the rat

compound: CCC(=O)O[C@H]1[C@H](O[C@@H]2[C@@H](C)[C@H](O[C@H]3C[C@@](C)(OC)[C@@H](O)[C@H](C)O3)[C@@H](C)C(=O)O[C@H](CC)[C@@](C)(O)[C@H](O)[C@@H](C)C(=O)[C@H](C)C[C@@]2(C)O)O[C@H](C)C[C@@H]1N(C)C [erythromycin estolate, reference compound]
concentration at 5 h [ng/mL]: 370

----------
System: B. anthranis SS 09
Format: cell-based
measurement-context: B. anthranis SS 09 (14 bis); Brain Heart Infusion; estolate and RV11-RV15 previously hydrolized; unit assumed
Item-by-item account of MIC

compound: CCC(=O)O[C@H]1[C@H](O[C@@H]2[C@@H](C)[C@H](O[C@H]3C[C@@](C)(OC)[C@@H](O)[C@H](C)O3)[C@@H](C)C(=O)O[C@H](CC)[C@@](C)(O)[C@H](O)[C@@H](C)C(=O)[C@H](C)C[C@@]2(C)O)O[C@H](C)C[C@@H]1N(C)C [RV14]
study-system: B. anthranis SS 09
MIC, µg/mL: 0.8
--
compound: CC[C@H]1OC(=O)[C@H](C)[C@@H](O[C@H]2C[C@@](C)(OC)[C@@H](O)[C@H](C)O2)[C@H](C)[C@@H](O[C@@H]2O[C@H](C)C[C@H](N(C)C)[C@H]2O)[C@](C)(O)C[C@@H](C)C(=O)[C@H](C)[C@@H](O)[C@]1(C)O [RV04, erythromycin-S-carboxymethylcysteinate]
study-system: B. anthranis SS 09
MIC, µg/mL: 0.2
--
compound: CCC(=O)O[C@H]1[C@H](O[C@@H]2[C@@H](C)[C@H](O[C@H]3C[C@@](C)(OC)[C@@H](O)[C@H](C)O3)[C@@H](C)C(=O)O[C@H](CC)[C@@](C)(O)[C@H](O)[C@@H](C)C(=O)[C@H](C)C[C@@]2(C)O)O[C@H](C)C[C@@H]1N(C)C [erythromycin estolate, reference compound]
study-system: B. anthranis SS 09
MIC, µg/mL: 0.4

----------
Tested on: C. albicans SS 04
Type: cell-based
measurement-context: Brain Heart Infusion, estolate and RV11-RV15 previously hydrolized, unit assumed
Item-by-item account of MIC

molecule: CC[C@H]1OC(=O)[C@H](C)[C@@H](O[C@H]2C[C@@](C)(OC)[C@@H](O)[C@H](C)O2)[C@H](C)[C@@H](O[C@@H]2O[C@H](C)C[C@H](N(C)C)[C@H]2O)[C@](C)(O)C[C@@H](C)C(=O)[C@H](C)[C@@H](O)[C@]1(C)O [RV03, erythromycyn-thiazolidin-carboxylate]
value-qualifier: =
MIC / µg/mL: 200

molecule: CCC(=O)O[C@H]1[C@H](O[C@@H]2[C@@H](C)[C@H](O[C@H]3C[C@@](C)(OC)[C@@H](O)[C@H](C)O3)[C@@H](C)C(=O)O[C@H](CC)[C@@](C)(O)[C@H](O)[C@@H](C)C(=O)[C@H](C)C[C@@]2(C)O)O[C@H](C)C[C@@H]1N(C)C [erythromycin estolate, reference compound]
value-qualifier: =
MIC / µg/mL: 200

molecule: CCC(=O)O[C@H]1[C@H](O[C@@H]2[C@@H](C)[C@H](O[C@H]3C[C@@](C)(OC)[C@@H](O)[C@H](C)O3)[C@@H](C)C(=O)O[C@H](CC)[C@@](C)(O)[C@H](O)[C@@H](C)C(=O)[C@H](C)C[C@@]2(C)O)O[C@H](C)C[C@@H]1N(C)C [RV13]
value-qualifier: =
MIC / µg/mL: 100

molecule: CC[C@H]1OC(=O)[C@H](C)[C@@H](O[C@H]2C[C@@](C)(OC)[C@@H](O)[C@H](C)O2)[C@H](C)[C@@H](O[C@@H]2O[C@H](C)C[C@H](N(C)C)[C@H]2O)[C@](C)(O)C[C@@H](C)C(=O)[C@H](C)[C@@H](O)[C@]1(C)O [RV05, erythromycin-N-acetylcysteinate]
value-qualifier: =
MIC / µg/mL: 100

molecule: CCC(=O)O[C@H]1[C@H](O[C@@H]2[C@@H](C)[C@H](O[C@H]3C[C@@](C)(OC)[C@@H](O)[C@H](C)O3)[C@@H](C)C(=O)O[C@H](CC)[C@@](C)(O)[C@H](O)[C@@H](C)C(=O)[C@H](C)C[C@@]2(C)O)O[C@H](C)C[C@@H]1N(C)C [RV15]
value-qualifier: =
MIC / µg/mL: 200

molecule: CCC(=O)O[C@H]1[C@H](O[C@@H]2[C@@H](C)[C@H](O[C@H]3C[C@@](C)(OC)[C@@H](O)[C@H](C)O3)[C@@H](C)C(=O)O[C@H](CC)[C@@](C)(O)[C@H](O)[C@@H](C)C(=O)[C@H](C)C[C@@]2(C)O)O[C@H](C)C[C@@H]1N(C)C [RV11]
value-qualifier: =
MIC / µg/mL: 200

molecule: CC[C@H]1OC(=O)[C@H](C)[C@@H](O[C@H]2C[C@@](C)(OC)[C@@H](O)[C@H](C)O2)[C@H](C)[C@@H](O[C@@H]2O[C@H](C)C[C@H](N(C)C)[C@H]2O)[C@](C)(O)C[C@@H](C)C(=O)[C@H](C)[C@@H](O)[C@]1(C)O [RV01, erythromycin alpha-mercaptosuccinate]
value-qualifier: >
MIC / µg/mL: 200
